assay: Turbidity, derived count rate of scattered light; assay type: physicochemical; conditions: Log10 of derived count rate of scattered light (turbidity)
observable: Log10 Count Rate
Give the value as a plain number.

KIKIQINMWQ = 3.342
EIEIQINMWQ = 3.102
EIEIQINM = 2.127

GET /value?item= `HHHHKIKIQINMYYYY` &field=Log10 Count Rate returns 3.753

GET /value?item= `QCKFKFQFNMWQ` &field=Log10 Count Rate returns 3.082

GET /value?item= `KIEIQINM` &field=Log10 Count Rate returns 2.439

GET /value?item= `KIKIKIKIWWWW` &field=Log10 Count Rate returns 4.094

GET /value?item= `KVKVQVVV` &field=Log10 Count Rate returns 2.213

GET /value?item= `KFKFEFEF` &field=Log10 Count Rate returns 3.34

GET /value?item= `QCKFKQFF` &field=Log10 Count Rate returns 2.353

GET /value?item= `HGEHGE` &field=Log10 Count Rate returns 2.381

GET /value?item= `KAKQAANMWQ` &field=Log10 Count Rate returns 2.839

GET /value?item= `KVKVQVV` &field=Log10 Count Rate returns 1.443

GET /value?item= `CKFKFQFNMWQ` &field=Log10 Count Rate returns 2.154

GET /value?item= `CKIKQIINM` &field=Log10 Count Rate returns 3.957

GET /value?item= `IKVAVKIKIQINM` &field=Log10 Count Rate returns 3.686

GET /value?item= `MDQMDQMDQMDQMDQ` &field=Log10 Count Rate returns 0.9823

GET /value?item= `CEIEIQINM` &field=Log10 Count Rate returns 1.767

GET /value?item= `HHHHKIKIKIKIYYYY` &field=Log10 Count Rate returns 4.107

GET /value?item= `HGDKCHGDKC` &field=Log10 Count Rate returns 1.095

---

assay: Turbidity, derived count rate of scattered light; assay type: physicochemical; conditions: derived count rate of scattered light; mean, std deviation in separate column
observable: Zeta Count Rate / kcps (kcps)
Respond numerically; units are kcps and should not be typed.

CKFKFQF [BL4] = 5303
CKFKQFF [CK15] = 2.567
KFKFQFW [TM71] = 121.9
CKIKIQI [MG3b] = 2432.9
KAKAQANMWQ [JG3] = 56.17

GET /value?item= KIKIQIW [TM69] &field=Zeta Count Rate / kcps returns 144.9

GET /value?item= KIKIKIKI [TM13] &field=Zeta Count Rate / kcps returns 155.1

GET /value?item= CKAKAQANMWQ [BL8] &field=Zeta Count Rate / kcps returns 8.967

GET /value?item= KAKAQANM [TM152] &field=Zeta Count Rate / kcps returns 42.5

GET /value?item= QCKFKQFFNM [CK11] &field=Zeta Count Rate / kcps returns 10384.7

GET /value?item= CKIKQIINM [BL1] &field=Zeta Count Rate / kcps returns 9058

GET /value?item= QCKFKQFFNMWQ [CK10] &field=Zeta Count Rate / kcps returns 18911.36667

GET /value?item= QCKAKAQA [CK24] &field=Zeta Count Rate / kcps returns 1319.1

GET /value?item= KIKIKIKIWW [TM21] &field=Zeta Count Rate / kcps returns 9436

---

// values below are reported Tht category (> 1.5 to blank = +)
type: physicochemical; conditions: category 1/0

KAKQAANMWQ [JG6] = 0 (ThT-inactive (N-Fold <2))
QCKFKQFF [CK12] = 1 (ThT. Cat is 1, if Rel. ThT >2)
KIKIKIKIWW [TM21] = 1 (ThT. Cat is 1, if Rel. ThT >2)

GET /value?item= CEIEIQINM [TM144] &field=Tht category (> 1.5 to blank = +) returns 1 (ThT. Cat is 1, if Rel. ThT >2)

GET /value?item= CKAKAQANM [BL9] &field=Tht category (> 1.5 to blank = +) returns 0 (ThT-inactive (N-Fold <2))

GET /value?item= KIKIKIQI [TG13] &field=Tht category (> 1.5 to blank = +) returns 1 (ThT. Cat is 1, if Rel. ThT >2)

GET /value?item= MKIKIQINM [TM41] &field=Tht category (> 1.5 to blank = +) returns 0 (ThT-inactive (N-Fold <2))

GET /value?item= QCKFKFQFNM [CK8] &field=Tht category (> 1.5 to blank = +) returns 1 (ThT. Cat is 1, if Rel. ThT >2)

GET /value?item= KWKWQW [KB3] &field=Tht category (> 1.5 to blank = +) returns 0 (ThT-inactive (N-Fold <2))

---

system: HIV-1 infection of TZM-bl cells; experiment: HIV-1 infectivity enhancement assay, β-galactosidase luminescence; type: cell-based; settings: n-fold infection vs virus only, relative to that of EF-C, 1.3 µM peptide
observable: Inf. rel. EF-C
Give the value as a plain number.

GET /value?item= `CRLRVGVS` &field=Inf. rel. EF-C returns 0.04

GET /value?item= `KAKLTCT` &field=Inf. rel. EF-C returns 0.07

GET /value?item= `KIWIWIW` &field=Inf. rel. EF-C returns 0.53

GET /value?item= KLVFFAK [reference compound] &field=Inf. rel. EF-C returns 0.07

GET /value?item= `KAQCTLP` &field=Inf. rel. EF-C returns 0.07

GET /value?item= VQIVYK [reference compound] &field=Inf. rel. EF-C returns 0.07

GET /value?item= RCELARTLKR [reference compound] &field=Inf. rel. EF-C returns 0.09

GET /value?item= `CKIWIQIY` &field=Inf. rel. EF-C returns 0.57

GET /value?item= IKFLSVN [reference compound] &field=Inf. rel. EF-C returns 0.07

GET /value?item= `QCKAKAQANM` &field=Inf. rel. EF-C returns 0.01

GET /value?item= NKGAII [reference compound] &field=Inf. rel. EF-C returns 0.06

GET /value?item= VLYVGSKT [reference compound] &field=Inf. rel. EF-C returns 0.06

GET /value?item= IIIQGK [reference compound] &field=Inf. rel. EF-C returns 0.06

GET /value?item= `CKAKAQANM` &field=Inf. rel. EF-C returns 0.03

---

tested on: HIV-1 infection of TZM-bl cells; test: HIV-1 infectivity enhancement assay, β-galactosidase luminescence; type: cell-based; conditions: infectivity class (low / medium / high) of each library peptide; main list in c1-c6, same classes repeated in sub-lists of sequences containing the hydrophobicity/charge patterns P+,H0,P+,H0,P0,H0,P0; P+,H0,P0,H0,P0,H0,P0; P+,H0,P0,H0
observable: infectivity

Example results:
RGDCKFKFQF [TM64/ CN15] = medium
QCKAKAQANMWQ [CK22] = low
CETMYDKILKNLSRSR [CR16] = low
RGDCKIKIQINM [TM45] = medium
CEFEFQFNMWQ [TM140] = medium
CKIKQIINM [BL1] = medium

GET /value?item= KIKIQINMWA [JR1] &field=infectivity returns medium

GET /value?item= CRFRFQF [CN10] &field=infectivity returns medium

GET /value?item= QCKFKQFFNM [CK11] &field=infectivity returns medium

GET /value?item= KIKIQINMWWWQ [VH12] &field=infectivity returns high

---

// values below are reported Zeta category ( +1 = if > 4 mV;-1 = if < -4 mV; 0 = -4mV to 4 mV)
test: Zeta-potential measurement; type: physicochemical; conditions: category from zeta potential

Example results:
QCKIKQIINM [CK5] = 1 (+1 = if > 4 mV)
ILKNLSRSRKIKIQINMWQ [TM92] = 1 (+1 = if > 4 mV)
KIKQII [msis21] = -1 (-1 = if < -4 mV)
KFKFKFQF [TG18] = 1 (+1 = if > 4 mV)
KIKIQINMW [JGB1 /TM85] = 1 (+1 = if > 4 mV)

Switching to the query record.
GET /value?item= RGDCKFKFQF [TM64/ CN15] &field=Zeta category ( +1 = if > 4 mV;-1 = if < -4 mV; 0 = -4mV to 4 mV) returns 1 (+1 = if > 4 mV)

---

test system: HIV-1 infection of TZM-bl cells; assay: HIV-1 infectivity enhancement assay, β-galactosidase luminescence; assay type: cell-based; conditions: HIV-1 infection of TZM-bl cells, Log10 of infection rate relative to EF-C; Figure 3A source data
observable: Log10 Infection Rel EF-C
Give the value as a plain number.

Example results:
RGDSGGGGGGKIKIQIC = -0.06
RGDCKIKIQINM = -0.63
EIEIEIEI = -1.75
CEIEIQI = -1.55

Readout Log10 Infection Rel EF-C for `KAKAQA` , test system HIV-1 infection of TZM-bl cells, was -1.74

Readout Log10 Infection Rel EF-C for `CKAKAQANM` , test system HIV-1 infection of TZM-bl cells, was -1.5

Readout Log10 Infection Rel EF-C for `QCKFKQFF` , test system HIV-1 infection of TZM-bl cells, was -1.91
